These data points were gathered from ChEMBL document CHEMBL1147071.

Molecular target: Hexokinase (Trypanosoma cruzi, UniProt Q8ST54)
Sequence (Q8ST54 whole entry): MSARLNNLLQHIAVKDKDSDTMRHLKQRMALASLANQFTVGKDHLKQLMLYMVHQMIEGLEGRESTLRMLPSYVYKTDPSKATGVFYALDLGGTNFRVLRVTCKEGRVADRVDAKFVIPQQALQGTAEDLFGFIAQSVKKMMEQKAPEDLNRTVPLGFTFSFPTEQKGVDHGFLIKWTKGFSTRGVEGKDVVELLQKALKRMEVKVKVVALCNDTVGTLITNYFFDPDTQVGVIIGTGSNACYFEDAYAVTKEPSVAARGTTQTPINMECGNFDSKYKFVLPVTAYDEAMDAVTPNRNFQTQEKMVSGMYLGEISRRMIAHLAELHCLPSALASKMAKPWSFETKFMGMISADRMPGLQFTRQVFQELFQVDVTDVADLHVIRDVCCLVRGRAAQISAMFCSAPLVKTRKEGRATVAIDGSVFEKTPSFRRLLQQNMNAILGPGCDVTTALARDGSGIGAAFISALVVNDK
Assay: Inhibition of Trypanosoma cruzi hexokinase in presence of D-glucose, 1 mM ATP and 3 mM MgCl2 by competitive inhibition assay
quantity: Ki (nM)

{"columns": ["compound", "Ki / nM"],
 "data": [
  ["O=P(O)(O)C(Nc1cccc(Br)c1)P(=O)(O)O", 400]
]}

A = O=P(O)(O)C(O)(Cc1ccncc1)P(=O)(O)O
B = CCn1c2ccccc2c2cc(NC(P(=O)(O)O)P(=O)(O)O)ccc21
Problem: Which of the two gives a bigger number for Ki: A or B ? Bench note: the answer is the label of the chosen record.
Result: A
(A: 3300 nM, B: 500 nM)
